molecular target: Endonuclease 8-like 2 (Homo sapiens) (UniProt Q969S2); conditions: Compound Concentration 10.0 uM, Hit No
Sequence (Q969S2 whole entry): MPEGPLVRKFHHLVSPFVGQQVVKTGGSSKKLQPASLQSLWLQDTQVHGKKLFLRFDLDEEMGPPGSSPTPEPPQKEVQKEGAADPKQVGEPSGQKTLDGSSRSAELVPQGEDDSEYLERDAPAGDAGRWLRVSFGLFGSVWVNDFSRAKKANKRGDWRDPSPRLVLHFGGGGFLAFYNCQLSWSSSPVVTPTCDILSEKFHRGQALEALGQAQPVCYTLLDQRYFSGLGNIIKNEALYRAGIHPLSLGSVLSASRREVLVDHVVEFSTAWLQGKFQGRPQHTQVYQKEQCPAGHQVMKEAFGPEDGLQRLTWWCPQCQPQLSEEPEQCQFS
Description: Inhibition of NEIL2 by quantifying inhibition of NEIL2-mediated cleavage and dissociation of quenched duplex DNA oligonucleotides, measured as fluorescence at 594 nm.
RECORDED ENDPOINT: inhibition (%)
Dear colleague, please return just the value in %, with no unit written.

Please review the following examples before continuing.
O=c1[nH]c(=O)c2nc3ccccc3nc2[nH]1 : 5.26
COc1ncc(F)cc1CNc1ccc(Cc2c[nH]c3ncc(C)cc23)c(F)n1 : 2.39

Lab request: please report inhibition under test system Endonuclease 8-like 2 (Homo sapiens) (UniProt Q969S2) for Cc1ccc(-c2ccc(F)cc2COc2ccc(CCC(=O)O)cc2)cc1
4.26

Please answer likewise for CC(C)(C)c1ccc(S(=O)(=O)Nc2ccc(Cl)cc2C(=O)c2cc[n+]([O-])cc2)cc1
-0.483

Please answer likewise for O=S(=O)(Nc1nnc2cc(OCC34CC5CC(CC(C5)C3)C4)c(C3CC3)cn12)C1CC1
11.9

Please answer likewise for Cc1c(NC(=O)COc2ccc(Cl)cc2C(=O)c2cc(F)cc(C(F)(F)F)c2)ccc(C(=O)O)c1F
17.9

Please answer likewise for Cc1ccccc1N1CCN(S(=O)(=O)C[C@]23CC[C@H](C[C@@H]2NC(=O)[C@@H](N)CCS(C)(=O)=O)C3(C)C)CC1
-8.47

Please answer likewise for N#CC1(c2ccccn2)CCN(Cc2cc(C(=O)N3CCCC3)c(=O)n3ccccc23)CC1
4.87

Please answer likewise for CC(C)(O)c1cnc(N2C[C@@]3(CCC[C@](C)(Cn4cnc5ccc(C#N)cc54)C3)OC2=O)cn1
5.76

---

The entries below are paired with their reported inhibition.
Target: UniProt P78549
Sequence (whole entry): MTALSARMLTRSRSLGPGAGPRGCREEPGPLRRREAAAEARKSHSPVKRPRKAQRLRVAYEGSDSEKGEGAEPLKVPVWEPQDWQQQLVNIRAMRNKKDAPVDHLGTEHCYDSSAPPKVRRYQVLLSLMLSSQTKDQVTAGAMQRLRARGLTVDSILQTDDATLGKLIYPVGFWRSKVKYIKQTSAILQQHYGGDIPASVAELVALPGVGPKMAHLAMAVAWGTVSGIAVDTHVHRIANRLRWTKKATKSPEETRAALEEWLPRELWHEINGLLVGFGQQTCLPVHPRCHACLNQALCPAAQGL
Details: Compound Concentration 10.0 uM, Hit No
Description: Inhibition of NTHL1 by quantifying inhibition of NTHL1-mediated cleavage and dissociation of quenched duplex DNA oligonucleotides, measured as fluorescence at 594 nm.
Where a SMILES comes first, the peptide text is derived from it. [ ]: non-standard residue; d: D form. The star is where a group is joined. dPhe(4-NHCONH2) = NC(=O)Nc1ccc(C[C@@H](N)C(=O)O)cc1; Dihydroorotyl(S) = O=C1C[C@@H](C(=O)*)NC(=O)N1; dPhe(4-Cl) = N[C@H](Cc1ccc(Cl)cc1)C(=O)O; Phe(4-NH2) = Nc1ccc(C[C@H](N)C(=O)O)cc1; d2Nal = N[C@H](Cc1ccc2ccccc2c1)C(=O)O; Lys(iPr) = CC(C)NCCCC[C@H](N)C(=O)O; d3Pal = N[C@H](Cc1cccnc1)C(=O)O
Dear colleague, please return just the value in %, with no unit written.

Cc1c(C2=CCN(C(=O)N(C)C(C)C)CC2)nnn1-c1cccnc1F : -9.8
Cc1nc(C#Cc2ccnc(Cl)c2)c(C)n1-c1ccc(OC(F)(F)F)cc1 : 7.05
OC[C@H]1O[C@@H](n2cnc3c(NC4CCCC4)ncnc32)[C@H](O)[C@@H]1O : 7.05
CCCCc1nc2ccc(NC(=O)NC3CCCCC3)cc2n1Cc1ccc(-c2ccccc2C(=O)O)cc1 : 8.52
CCC(C)(C)/N=C(\NC#N)Nc1cccnc1 : 21.2
CCc1ccccc1C(=O)Nc1n[nH]c2c(C)c(F)c(C3C(C#N)=C(C)N(C)C(C)=C3C#N)cc12 : -1.95
CCCn1c(=O)c2nc(C34CC5CC(CC3C5)C4)[nH]c2n(CCC)c1=O : -8.34
OCc1cc(C(O)CNCCCCCCOCCCCc2ccccc2)ccc1O (stereo not given) : 11.4

Find the recorded inhibition belonging to CNC1(C)C2CCC(C2)C1(C)C (stereo not given) and report it.
-2.73

Please answer likewise for N#Cc1c(Oc2cccc(OS(=O)(=O)CCCC(F)(F)F)c2)cccc1C(F)(F)F
-1.91

Please answer likewise for C[C@]1(C(=O)N(CCCC(=O)O)Cc2cccc(Cl)c2)CCN1C(=O)c1csc2ccccc12
-9.8

Please answer likewise for Cc1c(NC(=O)c2cc(C(N)=O)nc3cc(F)ccc23)c(C(F)(F)F)nn1Cc1ccc(C#N)cc1
-9.83

Please answer likewise for O=C(O)c1ccc2cc(-c3ccc(O)c(C45CC6CC(CC(C6)C4)C5)c3)ccc2c1
-1.29

Please answer likewise for O=C(c1cc(C2CC2)on1)N(C1CCCCC1)C1CCCCC1
10.5

Please answer likewise for CCOC(=O)c1cnn(-c2ccc(NC(=O)C(Cl)=C(Cl)Cl)cc2)c1C(F)(F)F
8

Please answer likewise for CC(C)(C(=O)O)c1ccc(C(O)CCCN2CCC(C(O)(c3ccccc3)c3ccccc3)CC2)cc1 (stereo not given)
2.66

Please answer likewise for Cc1nc(-c2ccc(C(F)(F)F)cc2)sc1C(=O)NCc1ccc(OC(C)(C)C(=O)O)cc1
-7.86

Please answer likewise for CCn1cc(-c2ccnc3[nH]c(-c4cccc(CN(C)C)c4)cc23)c(-c2ccc(NC(=O)N(C)C)cc2)n1
2.18

Please answer likewise for CC1(C)CCC(C)(C)c2cc(NC(=O)c3ccc(C(=O)O)cc3)ccc21
1.34

Please answer likewise for CC(=O)N[C@H](Cc1ccc2ccccc2c1)C(=O)N[C@H](Cc1ccc(Cl)cc1)C(=O)N[C@H](Cc1cccnc1)C(=O)N[C@@H](CO)C(=O)N[C@@H](Cc1ccc(NC(=O)[C@@H]2CC(=O)NC(=O)N2)cc1)C(=O)N[C@H](Cc1ccc(NC(N)=O)cc1)C(=O)N[C@@H](CC(C)C)C(=O)N[C@@H](CCCCNC(C)C)C(=O)N1CCC[C@H]1C(=O)N[C@H](C)C(N)=O (Ac-[d2Nal][dPhe(4-Cl)][d3Pal]S[Phe(4-NH2)](Dihydroorotyl(S))[dPhe(4-NHCONH2)]L[Lys(iPr)]P[dA]-NH2)
7.79

Please answer likewise for COCCCS(=O)(=O)c1cc(C)c(-c2ccc(F)c3c2CC[C@H]3Oc2ccc3c(c2)OC[C@H]3CC(=O)O)c(C)c1
-5.89

Please answer likewise for O=C(NNC(=O)c1ccc(CNS(=O)(=O)c2ccc(F)c(Cl)c2)cc1)c1ccccc1
4.7

Please answer likewise for O=C(O)Cn1c(C(=O)Nc2nc(-c3ccccc3Cl)cs2)cc2ccccc21
-9.07

Please answer likewise for Cc1c(C(=O)Nc2cccc(C(F)(F)F)c2)cc(-c2ccccc2)n1CCCN1CCOCC1
-7.69

Please answer likewise for N[C@](CC1c2ccccc2Oc2ccccc21)(C(=O)O)[C@H]1C[C@@H]1C(=O)O
8.82

Please answer likewise for O=C(O)C1CN(Cc2ccc(OCc3ccc(Cl)c(Cl)c3)cc2)C1
10.7

---

The entries below are paired with their reported inhibition.
molecular target: Endonuclease 8-like 2 (Homo sapiens); conditions: Compound Concentration 10.0 uM, Hit No
Dear colleague, please return just the value in %, with no unit written.

Please review the following examples before continuing.
CC(C)S(=O)(=O)c1ccc2nccc(Nc3ccc4scnc4c3)c2c1 : 1.58
COc1cc(-c2cncc(-c3ccc(N4CCN(C(C)C)CC4)cc3)c2C)cc(F)c1C(=O)N1CCCC1 : -8.65
C[C@@H]1CN(Cc2ccc(F)cc2)CCN1C(=O)COc1ccc(Cl)cc1NC(N)=O : 1.76
CC(C)Cc1ccc([C@@H](C)C(=O)NS(C)(=O)=O)cc1 : -1.98

Please turn your attention to the following entry.
Lab request: please report inhibition under test system Endonuclease 8-like 2 (Homo sapiens) for Cc1ccc2[nH]c(CNCCCc3ccncc3)cc(=O)c2c1;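 also: fluorescence at 594 nm reports NEIL2 cutting and release of a quenched double-stranded DNA oligo substrate, reduced signal read as inhibition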
-5.59

---

molecular target: Adenine DNA glycosylase (Homo sapiens); conditions: Compound Concentration 10.0 uM, Hit No;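 also: human MUTYH activity read as 594 nm fluorescence from cleavage and release of a quenched DNA duplex, coupled with APE1 for strand incision, lower signal meaning inhibition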
Description: Inhibition of MUTYH by quantifying inhibition of MUTYH-mediated cleavage and dissociation of quenched duplex DNA oligonucleotides, measured as fluorescence at 594 nm. To generate a functional strand incision and increase turn-over this assay is coupled to APE1.
RECORDED ENDPOINT: inhibition (%)
Dear colleague, please return just the value in %, with no unit written.

Please review the following examples before continuing.
COc1ccc(CN(CCN(C)C)c2ccccn2)cc1 : 4.88
COc1ccccc1CN[C@H]1C2CCN(CC2)[C@H]1C(c1ccccc1)c1ccccc1 : 11.2
COc1cc(-c2cn([C@H]3CCc4c(F)cccc4N(CC(F)(F)F)C3=O)nn2)ccc1-n1cnc(C)c1 : 0.879
Cc1cc(OC2CCS(=O)(=O)CC2)cc(C)c1-c1cccc(COc2ccc(C(=O)O)c(F)c2)c1 : 8.53
CCCCc1nc(Cl)c(CO)n1Cc1ccc(-c2ccccc2-c2nnn[nH]2)cc1 : 4.88

Find the recorded inhibition belonging to CC(Cc1ccc(O)c(O)c1)C(C)Cc1ccc(O)c(O)c1 (configuration not stated) and report it.
35.6

Please answer likewise for CC[C@@H](Nc1c(C#N)c(-c2ccc(-c3cccc(C)c3F)cc2)nc2cnccc12)C(=O)O
24.5

Please answer likewise for C[C@@H](NC(=O)Cc1ccc(C2CC2)cc1)c1ccc(OCC(F)(F)F)cn1
-6.51

Please answer likewise for CC(C)S(=O)(=O)c1ccc2nccc(Nc3ccc4scnc4c3)c2c1
18.3
